Biological target: T1, IL10Rα/IL2Rγ receptor (human) (UniProt Q13651)
T1 sequence (looked up) 1: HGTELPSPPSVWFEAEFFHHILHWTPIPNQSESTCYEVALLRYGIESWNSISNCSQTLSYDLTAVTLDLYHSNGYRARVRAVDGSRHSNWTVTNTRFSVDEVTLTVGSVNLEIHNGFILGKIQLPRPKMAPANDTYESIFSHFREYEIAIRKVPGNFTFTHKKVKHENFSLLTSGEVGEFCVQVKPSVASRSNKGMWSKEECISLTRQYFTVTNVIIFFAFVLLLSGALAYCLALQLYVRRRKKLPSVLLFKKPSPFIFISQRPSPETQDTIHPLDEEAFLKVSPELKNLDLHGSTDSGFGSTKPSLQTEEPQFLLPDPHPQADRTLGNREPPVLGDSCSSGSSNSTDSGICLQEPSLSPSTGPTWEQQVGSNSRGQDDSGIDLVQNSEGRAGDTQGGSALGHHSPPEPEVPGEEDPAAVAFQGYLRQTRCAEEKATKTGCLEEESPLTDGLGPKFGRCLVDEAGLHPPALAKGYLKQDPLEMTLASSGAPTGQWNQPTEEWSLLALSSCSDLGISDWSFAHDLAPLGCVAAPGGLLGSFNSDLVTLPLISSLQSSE
T1 sequence (looked up) 2: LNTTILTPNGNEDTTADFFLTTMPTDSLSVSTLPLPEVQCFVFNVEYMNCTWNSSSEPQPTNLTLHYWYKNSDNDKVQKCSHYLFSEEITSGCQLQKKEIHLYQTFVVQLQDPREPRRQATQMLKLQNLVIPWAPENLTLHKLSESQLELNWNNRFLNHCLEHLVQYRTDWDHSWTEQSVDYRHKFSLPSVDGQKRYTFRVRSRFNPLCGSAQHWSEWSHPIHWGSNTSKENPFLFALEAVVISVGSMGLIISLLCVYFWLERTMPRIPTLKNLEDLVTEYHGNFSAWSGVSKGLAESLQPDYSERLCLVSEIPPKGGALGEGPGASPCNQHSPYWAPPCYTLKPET
Assay: cell-based or functional assay
Listed here are binders together with their documented IL-1β secretion, LPS treated monocytes, at 0.01 µM.
Write the numeric value and follow it with the unit.

>>> value("hIL10Ra_VHH14 - hIL2Rg_VHH19, linker GGGSGGGS, tag his (bispecific antibody, not shown: small tags and cut ends) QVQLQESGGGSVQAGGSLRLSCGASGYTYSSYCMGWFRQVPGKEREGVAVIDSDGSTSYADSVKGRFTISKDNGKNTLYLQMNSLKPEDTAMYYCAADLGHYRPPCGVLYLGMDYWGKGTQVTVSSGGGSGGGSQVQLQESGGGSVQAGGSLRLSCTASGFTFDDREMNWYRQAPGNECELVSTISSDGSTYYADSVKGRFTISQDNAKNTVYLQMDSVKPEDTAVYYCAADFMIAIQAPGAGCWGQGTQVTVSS")
"4960 pg/mL"

Req: Which value of IL-1β secretion, LPS treated monocytes, at 0.01 µM has been reported for hIL10Ra_VHH14 - hIL2Rg_VHH19, linker GGGS, tag Fc (bispecific antibody, not shown: a dimerising Fc or GST) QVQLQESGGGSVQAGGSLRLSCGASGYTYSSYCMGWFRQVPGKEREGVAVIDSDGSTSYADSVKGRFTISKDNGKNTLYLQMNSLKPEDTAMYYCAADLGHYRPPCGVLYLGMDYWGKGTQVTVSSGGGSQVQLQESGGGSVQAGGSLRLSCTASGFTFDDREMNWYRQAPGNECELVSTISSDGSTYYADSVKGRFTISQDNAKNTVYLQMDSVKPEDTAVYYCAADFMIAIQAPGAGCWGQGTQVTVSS in the records?
Resp: 5260 pg/mL
